The measured values listed here are drawn from patent US6972319B1.

- measured.on: T1, PACAP-R3 (human, UniProt P41587 24-438)
- T1 sequence (looked up): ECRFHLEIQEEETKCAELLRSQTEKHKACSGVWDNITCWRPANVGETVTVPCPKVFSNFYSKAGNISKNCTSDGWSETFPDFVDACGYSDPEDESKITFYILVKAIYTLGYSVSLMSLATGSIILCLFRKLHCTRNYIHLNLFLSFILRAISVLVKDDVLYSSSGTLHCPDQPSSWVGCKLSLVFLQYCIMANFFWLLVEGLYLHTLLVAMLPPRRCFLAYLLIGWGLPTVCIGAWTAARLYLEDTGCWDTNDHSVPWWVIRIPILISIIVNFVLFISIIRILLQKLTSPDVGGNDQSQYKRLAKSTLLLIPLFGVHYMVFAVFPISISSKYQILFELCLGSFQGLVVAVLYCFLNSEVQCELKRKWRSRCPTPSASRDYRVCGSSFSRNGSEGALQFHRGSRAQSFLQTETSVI
- assay.method.text: cell-based or functional assay
No end group written: not given here.
endpoint: R3 EC50 (nM)

Examples with their reported R3 EC50 follow.
| binder | R3 EC50 (nM) |
| --- | --- |
| HSDAVFTDNYTRLRKQVAVKKYLQSILKKRY [R3P87] | 0.2 |
| HSDAVFTDNYTRLRKQVAAKKYLQSIKNK [R3P86] | 0.8 |
| HSDAVFTDNYTRLRKQMAVKKYLNSIKK-NH2 [R3P8] | 1.4 |
| HSDGIFTDSYSRYRKQMAVKKYLAAVKKYLAAVRHG-NH2 [R3P17] | 4 |
| HSDAVFTDNYTRLRKQMAQKKYLNSIKNKR [R3P109] | 10 |
| HSDAVFTDNYTRLRKQMARKKYLNSIKNKR [R3P110] | 0.5 |

a = HSDAVFTDNYTRLRKQMAAKKYLNSIWNKR [R3P132]
b = HSDAVFTDNYTRLRKQMAAKKYLNSIKNHR [R3P140]
c = HSDAVFTDNYTRLRKQMAAKKYLNSILK [R3P50]
d = HSDAVFTDNYTRLRKQLAAKKYLNDIKKGGT [R3P12]
query: Order each entry by recorded R3 EC50, climbing from the minimum. List the labels according to the requested ordering.
result: c, a, b, d

A = HSDAVFTDNYTRLRKQVAAKKYLQSIKKKR [R3P77]
B = HSDAVFTDNYTRLRKQMAAKKYLNSISNKR [R3P129]
query: Of A and B , which carries the smaller reported R3 EC50 figure? Refer to your chosen entry by its label in the reply.
result: A

P = HSDAVFTDNYTRLRKQMAVKKYLNSIKN [R3P42]
Q = HSDAVFTDNYTRLRKQMAIKKYLNSIKNKR [R3P103]
R = HSDAVFTDNYTRLRKQMAAKKYLNSIKKKRY [R3P52]
S = HSDAVFTDNYTRLRKQMAVKKYLNSILK [R3P43]
T = HSDAVFTDNYTRLRKQMAAKKYLNSIKNNR [R3P144]
query: Order field: R3 EC50 | Direction: descending (largest first) When ranking, write the labels in the order the request describes.
result: T, R, S, Q, P

P = HSDGIFTDSYSRYRKQLAVKKYLAAVKK [R3P39]
Q = HSDAVFTDNYTRLRKQMAAKKYLNSIKNKM [R3P163]
query: Which of the two items, P and Q , has the greater recorded R3 EC50? Respond using the label that marks the chosen record.
result: P

a = HSDAVFTDNYTRLRKQVAVKKYLQSIKNKRY [R3P82]
b = HSDAVFTDNYTRLRKQVAVKKYLQSILKK [R3P89]
query: Min R3 EC50? a | b Respond with the label that goes with your answer.
result: b
(b: 0.06 nM, a: 0.4 nM)

1 = HSDAVFTDNYTRLRKQMAAKKYLNSIENKR [R3P119]
2 = HSDAVFTDNYTKLRKQLAAKKYLNDILNGGT [R3P11]
query: Task for the reader: decide whether 1 or 2 has the larger R3 EC50. Write down the label attached to your selection.
result: 2
(2: 3 nM, 1: 0.5 nM)

A = HSDAVFTDNYTRLRKQLAAKKYLNDIKK [R3P33]
B = HSDAVFTDNYTRLRKQMAAKKYLNSIANKR [R3P116]
C = HSDAVFTDNYTRLRKQMAKKKYLNSIKNKR [R3P104]
query: Form: Sort by [R3 EC50] Order [ ascending ] I'd appreciate it if you listed the labels in the requested order.
result: C, A, B
(C: 0.2 nM, A: 0.5 nM, B: 1 nM)
